This collection of values is drawn from ChEMBL document CHEMBL1201862.

- system: UniProtKB Q6QLK5
- Sequence (Q6QLK5 whole entry, the tested form may be a part): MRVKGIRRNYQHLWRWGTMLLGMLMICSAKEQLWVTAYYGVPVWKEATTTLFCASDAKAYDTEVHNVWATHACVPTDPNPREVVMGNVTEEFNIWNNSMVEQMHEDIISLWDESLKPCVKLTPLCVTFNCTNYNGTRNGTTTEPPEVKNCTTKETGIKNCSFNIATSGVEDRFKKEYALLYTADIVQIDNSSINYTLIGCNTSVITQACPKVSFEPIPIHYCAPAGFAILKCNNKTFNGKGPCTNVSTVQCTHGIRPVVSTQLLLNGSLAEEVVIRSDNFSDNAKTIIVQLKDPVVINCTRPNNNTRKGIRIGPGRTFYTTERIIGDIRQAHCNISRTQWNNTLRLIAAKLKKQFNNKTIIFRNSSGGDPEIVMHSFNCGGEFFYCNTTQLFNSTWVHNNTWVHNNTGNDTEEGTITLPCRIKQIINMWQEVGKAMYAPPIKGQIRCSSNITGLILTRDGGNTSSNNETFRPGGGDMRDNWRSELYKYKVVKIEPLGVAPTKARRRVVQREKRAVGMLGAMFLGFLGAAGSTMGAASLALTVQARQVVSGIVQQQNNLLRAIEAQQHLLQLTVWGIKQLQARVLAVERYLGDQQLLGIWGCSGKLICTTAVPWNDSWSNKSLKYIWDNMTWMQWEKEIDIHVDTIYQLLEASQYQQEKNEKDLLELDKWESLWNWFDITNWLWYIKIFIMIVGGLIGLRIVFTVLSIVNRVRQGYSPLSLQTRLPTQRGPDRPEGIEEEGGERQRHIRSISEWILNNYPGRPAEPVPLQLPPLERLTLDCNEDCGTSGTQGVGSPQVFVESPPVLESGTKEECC
- experimentDescription: cell-free HIV fusion peptide-binding blockers – biochemical, uHTS, fluorescence dequenching, […] (AID 1986)
Active and inactive are the calls of the source. Rule as the data show it: actives have a measured IC50 and inactives only a lower limit.
Listed molecules paired with reported IC50
measuredAttribute: IC50

{"molecule": "CCOC(=O)C1=C(C)N=c2s/c(=C\\c3ccc(OCC(=O)O)cc3)c(=O)n2C1c1ccc(OC(C)C)cc1 (centres undefined)", "measuredAttribute": "IC50", "result": "16.3 µM (active)"}
{"molecule": "O=C(O)CCCCCN1C(=O)/C(=C\\c2cn(-c3ccccc3)nc2-c2cccs2)SC1=S", "measuredAttribute": "IC50", "result": "9.84 µM (active)"}
{"molecule": "O=C(O)c1ccccc1NC(=O)c1ccccc1Nc1ccccc1", "measuredAttribute": "IC50", "result": "17.5 µM (active)"}
{"molecule": "Cc1ccc(S(=O)(=O)Oc2ccc(/C=C3/C(=N)N4C(=NC3=O)SN=C4S(C)(=O)=O)cc2)cc1", "measuredAttribute": "IC50", "result": "16.9 µM (active)"}
